- TARGET_OR_TEST_SYSTEM: T1, human IL-2Rβ (human, UniProt P14784 27-240, limits assumed)
- T1 construct: Recombinant protein, coated (ELISA) or immobilised on CM5 (SPR); also called hu IL-2R; interleukin 2 receptor β-chain
- T1 sequence: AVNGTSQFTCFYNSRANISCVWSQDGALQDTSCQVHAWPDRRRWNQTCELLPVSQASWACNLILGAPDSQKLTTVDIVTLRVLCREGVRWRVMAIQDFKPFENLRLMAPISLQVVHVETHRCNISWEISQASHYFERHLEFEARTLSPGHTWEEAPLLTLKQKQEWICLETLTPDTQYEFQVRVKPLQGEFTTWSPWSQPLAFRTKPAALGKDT
- EXPERIMENT_DESCRIPTION: SPR (Biacore), P.E. off-rate ranking
Quick rule for you: koff under 0.0003 s⁻¹ gets 1, anything else gets 0.

>  <BINDER>
FJ1427_P035MP03E02 (VHH, soluble VHH in periplasmic extract; also called clone nr) VHH: QVQLVESGGGLVQVGGSLSVSCAASGRSFDSITMAYFRQAPGNEREFIAGINFSGSRTAYGDSVKGRFTISRDNAKNTVFLQMNSLNPEDTAVYYCAASPRGFYGPGHALYDYWGQGTQVTVSS

>  <LABEL_VALUE>
0

$$$$
>  <BINDER>
FJ1427 P035MP06D01 (VHH, soluble VHH in periplasmic extract; also called clone nr) VHH: QVQLVESGGRLVQAGGSLRLSCAASGDVFVRYTMAWFRQAPGKEREFVASVTDSGRTTEYVDSVKGRFTVSRDNAKNTAYLQMNNLKPEDTAVYYCAANTDYFQIRSLNLNTWGQGTQVTVSS

>  <LABEL_VALUE>
0

$$$$
>  <BINDER>
FJ1427 P035MP03B12 (VHH, soluble VHH in periplasmic extract; also called clone nr) VHH: EVQLVESGGGLVQAGGSLRLSCAASGDVFVRYTMAWFRQAPGKEREFVAAVTDSGRTADYVDSVKGRFTVSRDNAKNTVYLQMNNLKPEDTAVYYCAANTDYFQIRSLDRNTWGQGTQVTVSS

>  <LABEL_VALUE>
0

$$$$
>  <BINDER>
FJ1427_P035MP02D12 (VHH, soluble VHH in periplasmic extract; also called clone nr) VHH: QVQLVESGGGLVQAGGSLTLSCAASGGAFSSDAKAWFRQAPGKEREFVAAITWAGRGTDYADSVKGRFTITRDNAKATVHLQMNSLKPEDTAVYYCALNPRGVIGPAFRNSNHYTYWGQGTQVTVSS

>  <LABEL_VALUE>
0

$$$$

Prompt: Hello, I'm reviewing records and need to know if koff of FJ1427_P035MP03F06 (VHH, soluble VHH in periplasmic extract; also called clone nr) VHH: QVQLQESGGGLVQTGGSLRLSCAASGSQFINDVMGWYRQVPGKQRELVADMDDTGSTKYADSVKGRFTILRDSVKNTAYLQMSNLKPEDTGVYYCKAGLWIKGRHSDYWGQGTQVTVSS is below 0.0003 s⁻¹. Could you check?
Response: 1

Prompt: # TODO verify koff < 0.0003 s⁻¹ strictly for this binder: FJ1427_P035MP03H01 (VHH, soluble VHH in periplasmic extract; also called clone nr; 200) VHH: QVQLVESGGGSVQTGGSLRLSCVVSGSHFISDVMGWYRQVPGKQRELVADMADGGSAKYADSVKGRFTILRDSVKNTVTLQMSSLNPEDTGVYYCKAGLWITGRHSDYWGQGTQVTVTS
Response: 0

Prompt: Consider the binder FJ1427 P035MP03A06 (VHH, soluble VHH in periplasmic extract; also called clone nr) VHH: EVQLVESGGGLVQTGGSLRLSCAVSGSRFISDVMGWYRQVPGKARELVADMADGGSAKYADSVKGRFSIVRDSGKSTMYLQMSSLKPEDTGMYYCKAGLWIAGRHSDYWGQGTQVTVSS . Is its koff strictly less than 0.0003 s⁻¹?
Response: 1

Prompt: Regarding FJ1427_P035MP02E12 (VHH, soluble VHH in periplasmic extract; also called clone nr) VHH: QVQLQESGGGLVQAGGSMRLSCAASGRTFSNYVIAWFRQAPGKEREFVGAITQTGRGTFYASSVEGRFTLSRLNDQSTVYLQMNSLNPEDTGVYYCSAPRSGRAGTRNQMDYEYWGQGTQVTVSS , kindly confirm whether its koff is beneath 0.0003 s⁻¹.
Response: 0

The measured values listed here are drawn from patent US20240409645A1.
